tested-system: T1, mouse GLP-1 receptor (mouse, UniProt O35659 22-463)
T1 sequence (looked up): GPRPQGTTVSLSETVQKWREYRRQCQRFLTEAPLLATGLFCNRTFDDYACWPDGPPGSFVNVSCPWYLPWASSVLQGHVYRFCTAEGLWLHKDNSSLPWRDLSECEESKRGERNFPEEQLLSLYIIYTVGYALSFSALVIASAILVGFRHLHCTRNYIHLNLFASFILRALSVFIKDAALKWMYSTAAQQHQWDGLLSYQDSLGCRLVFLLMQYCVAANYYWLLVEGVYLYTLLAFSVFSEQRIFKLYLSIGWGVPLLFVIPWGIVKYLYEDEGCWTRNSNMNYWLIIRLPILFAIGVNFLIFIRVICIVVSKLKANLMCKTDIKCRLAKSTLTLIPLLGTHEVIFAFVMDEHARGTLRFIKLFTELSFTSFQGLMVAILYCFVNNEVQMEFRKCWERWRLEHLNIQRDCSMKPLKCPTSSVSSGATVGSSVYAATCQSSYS
test-protocol: cell-based or functional assay
Groups on a side chain read outwards from the residue. No end group written: not given here. maleimide = maleimide group of a PEG-maleimide, coupled to the cysteine thiol (thioether); mPEG 20 kDa = 20 kD mPEG-maleimide, thioether-linked to the Cys; branched PEG 40 kDa = branched polyethylene glycol of 40 kDa
just bin them by EC50 mouse: 1 = under 2 nM, 2 = from 2 nM up to 4 nM, 3 = 4 nM and over

binder	class-name
HGEGTFTSDVSSYLEGCAAKEFIAWLKNGGPSSGAPPPS (Unconjugated peptide) [HGEGTFTSDVSSYLEGCAAKEFIAWLKNGGPSSGAPPPS (SEQ ID NO: 8)]	1
HGEGTFTSDVSSYLEGC(branched PEG 40 kDa)AAKEFIAWLVKGRG [cgGLP-2 (SEQ ID NO: 6 + 40k branched PEG)]	2
HGEGTFTSDVSSYLEGC([maleimide-mPEG 20 kDa])AAKEFIAWLVKGRG [cgGLP-1 (SEQ ID NO: 6 + 20K PEG)]	3
HGEGTFTSDVSSYLEGCAAKEFIAWLVKGRGSSGAPPPS (Unconjugated peptide) [HGEGTFTSDVSSYLEGCAAKEFIAWLVKGRGSSGAPPPS (SEQ ID NO: 7)]	1
HGEGTFTSDVSSYLEGC(PEG 20 kDa)AAKEFIAWLVKGRGSSGAPPPS [cgGLP-12 (SEQ ID NO: 7 + 20k PEG monomer)]	3
HGEGTFTSDVSSYLEGC(PEG 30 kDa)AAKEFIAWLVKGRG [cgGLP-7 (SEQ ID NO: 6 + 30k PEG)]	2
HGEGTFTSDVSSYLEGCAAKEFIAWLVKGRG (Unconjugated peptide) [HGEGTFTSDVSSYLEGCAAKEFIAWLVKGRG (SEQ ID NO: 6)]	1
HGEGTFTSDVSSYLEGC(PEG 20 kDa)AAKEFIAWLKNGGPSSGAPPPS [cgGLP-13 (SEQ ID NO: 8 + 20k PEG monomer)]	2
HGEGTFTSDVSSYLEGCAAKEFIAWLVKGRG (not fully specified (residue 17); also: dimer: two peptides on one mal-PEG-mal, one at each end) [cgGLP-3 (SEQ ID NO: 6 + 8k PEG dumbbell)]	3
